test: Photo-DSC analysis of various styrene oxides formulated with photoinitiator and diol (Example 6); assay type: physicochemical; conditions: Tone polyol, Epoxy:Diol 1:1
I'd be grateful if you could share measured ΔH for these entries.
Numbers only, in kJ/Mole EPOXIDE.

A selection of reference data follows.
CC(=O)OCC1OC1c1ccccc1 (centres unmarked) [cinnamyl acetate epoxy, cinnamyl acetate epoxide]
-55.6
CC1(c2ccccc2)CO1 (centres unmarked)
-76.5
COc1cc(C2OC2C)ccc1OC(C)=O (centres unmarked) [isoeugenol acetate epoxy, isoeugenol acetate epoxide]
-75.0

Read the next record carefully.
Task item: Please give the measured ΔH for this compound: CC1OC1c1ccccc1 (stereo not drawn) [beta-methyl styrene epoxy, beta-methyl styrene mono-epoxide]
Reply: -80.5
